test-system: Beta-1 adrenergic receptor (Homo sapiens, UniProt P08588)
Sequence (P08588 whole entry): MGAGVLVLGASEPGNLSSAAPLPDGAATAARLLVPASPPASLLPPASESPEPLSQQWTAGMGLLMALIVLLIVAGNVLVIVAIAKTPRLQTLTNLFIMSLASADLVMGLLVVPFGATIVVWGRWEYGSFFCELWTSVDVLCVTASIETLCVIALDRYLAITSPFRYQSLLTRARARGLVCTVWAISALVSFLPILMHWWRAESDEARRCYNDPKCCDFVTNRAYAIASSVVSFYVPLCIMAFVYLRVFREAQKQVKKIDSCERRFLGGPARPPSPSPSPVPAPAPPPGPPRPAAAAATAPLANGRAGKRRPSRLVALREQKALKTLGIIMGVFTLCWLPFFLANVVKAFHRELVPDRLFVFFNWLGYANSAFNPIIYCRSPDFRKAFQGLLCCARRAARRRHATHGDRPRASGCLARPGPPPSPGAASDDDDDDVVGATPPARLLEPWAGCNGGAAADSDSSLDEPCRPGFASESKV
experiment-description: Agonist activity at Homo sapiens (human) beta1 adrenoreceptor
parameter-measured: pEC50
Remember the convention: pEC50 equals -log10 of concentration in molar.

Recorded results for 2 compounds are shown here.
C[C@H](Cc1c[nH]c2c(OS(C)(=O)=O)cccc12)NC[C@H](O)c1ccc(C(=O)Nc2ccccc2)cc1 = 7.16
C[C@H](Cc1c[nH]c2ccccc12)NC[C@H](O)c1cccc(NS(=O)(=O)c2cccs2)c1 = 7.68

Here is the next item to consider.
Task item: Looking for the measured pEC50 of C[C@H](Cc1c[nH]c2c(OS(C)(=O)=O)cccc12)NC[C@H](O)c1cccc(NS(=O)(=O)c2cccc(N)c2)c1 , can you help?
Reply: 7.89

====

test-system: Beta-1 adrenergic receptor (Homo sapiens, UniProt P08588)
experiment-description: Agonist activity at Homo sapiens (human) beta1 adrenoreceptor
pEC50: −log10 of the molar value.
# cutoff 8 applies to pEC50; >= gives TRUE, < gives FALSE

Solved cases (5 shown):
C[C@H](Cc1c[nH]c2c(OS(=O)(=O)c3ccccc3)cccc12)NC[C@H](O)c1cccc(NS(=O)(=O)c2cccs2)c1 = TRUE
C[C@H](Cc1c[nH]c2c(OS(=O)(=O)c3cccnc3)cccc12)NC[C@H](O)c1cccc(NS(=O)(=O)c2cccs2)c1 = TRUE
CC(C)=CCNc1cccc([C@@H](O)CN[C@H](C)Cc2c[nH]c3c(OS(C)(=O)=O)cccc23)c1 = FALSE
CCCCCCCCS(=O)(=O)Oc1cccc2c(C[C@@H](C)NC[C@H](O)c3cccc(NS(=O)(=O)c4cccs4)c3)c[nH]c12 = TRUE
C[C@H](Cc1c[nH]c2c(OS(=O)(=O)c3cccs3)cccc12)NC[C@H](O)c1cccc(NS(=O)(=O)c2cccs2)c1 = TRUE

Switching to the query record.
Task item: Given COc1cccc2c(C[C@@H](C)NC[C@H](O)c3cccc(NS(=O)(=O)c4cccs4)c3)cn(Cc3ccccc3)c12 , state whether its pEC50 is at least 8.
Reply: FALSE

====

test-system: Beta-1 adrenergic receptor (Homo sapiens)
experiment-description: Agonist activity at Homo sapiens (human) beta1 adrenoreceptor
parameter-measured: pEC50
By convention, pEC50 is the negative base-10 log of a molar concentration.

Solved entries:
C#CCNc1cccc([C@@H](O)CN[C@H](C)Cc2c[nH]c3c(OS(C)(=O)=O)cccc23)c1 = 8.02
COc1cccc2c(C[C@@H](C)NC[C@H](O)c3cccc(NS(=O)(=O)c4cccs4)c3)c[nH]c12 = 8.18
C/C=C/CNc1cccc([C@@H](O)CN[C@H](C)Cc2c[nH]c3c(OS(C)(=O)=O)cccc23)c1 = 8.00
CCOC(=O)S(=O)(=O)Oc1cccc2c(C[C@@H](C)NC[C@H](O)c3cccc(NS(=O)(=O)c4cccs4)c3)c[nH]c12 = 8.14

We next turn to a different compound, shown below.
Task item: Need pEC50 of CCCCS(=O)(=O)Oc1cccc2c(C[C@@H](C)NC[C@H](O)c3cccc(NS(=O)(=O)c4cccs4)c3)c[nH]c12 , thanks.
Reply: 8.14
